Target: Human immunodeficiency virus type 1 protease (Human immunodeficiency virus 1, UniProt Q72874)
Test: Compound was tested for inhibitory activity against isolated HIV-1 protease
Consider the following molecules and their measured IC50 readings.
Note: a bare number is incomplete; add the unit.

Worked examples, 2 molecules total:
CC(C)(C)NC(=O)c1ccccc1S(=O)(=O)C[C@@H](O)[C@H](Cc1ccccc1)NC(=O)[C@H](CC(N)=O)NC(=O)c1ccc2ccccc2n1 = 509 nM
CC(C)(C)NC(=O)c1ccccc1SC[C@H](O)[C@H](Cc1ccccc1)NC(=O)[C@H](CC(N)=O)NC(=O)c1ccc2ccccc2n1 = 56.1 nM

## Input Please report the recorded IC50 for CC(C)(C)NC(=O)c1ccccc1SC[C@@H](O)[C@H](Cc1ccccc1)NC(=O)[C@H](CC(N)=O)NC(=O)c1ccc2ccccc2n1 .
## Output 13.4 nM

## Input Please report the recorded IC50 for CC(C)(C)NC(=O)c1ccccc1SC[C@@H](O)[C@H](Cc1ccccc1)NC(=O)[C@H](Cc1c[nH]cn1)NC(=O)c1ccc2ccccc2n1 .
## Output 208 nM
